# Test system: human PKK mRNA
# Method Notes: Antisense inhibition of human PKK mRNA in HepaRG cells, 3,000 nM (Example 1)
# Assay type: cell-based
# Condition Notes: Table 3; HepaRG cells, electroporation with 3,000 nM antisense oligonucleotide, approx. 24 hours; PKK mRNA by RT-PCR (RTS3454), relative to untreated control cells
Strand notation (5' to 3'): a small letter for the sugar, then the base; units joined by * are phosphorothioate-linked, units joined directly phosphodiester-linked; [ ] holds rarer units or linkages, { } end groups; capitals alone tell only the bases. e = 2'-O-(2-methoxyethyl) (MOE); [5mC] = 5-methylcytosine; d = 2'-deoxy (DNA)
Attribute: % inhibition

>  <Substance>
531126 (antisense eT*eT*eT*eT*eG*dA*dA*dT*d[5mC]*dT*dT*d[5mC]*dA*dT*dT*e[5mC]*eA*eA*eA*eG) [compound 531126]

>  <% inhibition / %>
0

$$$$
>  <Substance>
531108 (antisense eT*eG*eA*eA*e[5mC]*d[5mC]*d[5mC]*dA*dA*dA*dA*d[5mC]*dT*d[5mC]*dT*eG*eG*e[5mC]*eA*e[5mC]) [compound 531108]

>  <% inhibition / %>
50

$$$$
>  <Substance>
531123 (antisense eT*e[5mC]*e[5mC]*e[5mC]*eA*dG*d[5mC]*dT*d[5mC]*d[5mC]*dA*dG*dT*d[5mC]*dA*e[5mC]*e[5mC]*eA*e[5mC]*e[5mC]) [compound 531123]

>  <% inhibition / %>
74

$$$$
>  <Substance>
531100 (e[5mC]*e[5mC]*e[5mC]*e[5mC]*e[5mC]*dT*d[5mC]*d[5mC]*d[5mC]*dT*dT*d[5mC]*d[5mC]*d[5mC]*dT*eA*e[5mC]*eA*e[5mC]*eA; antisense) [compound 531100]

>  <% inhibition / %>
0

$$$$
>  <Substance>
531112 (antisense eA*eT*eG*eT*eA*dT*dG*dA*dT*dT*d[5mC]*dT*dA*dA*dG*eA*eA*e[5mC]*eT*eT) [compound 531112]

>  <% inhibition / %>
14

$$$$
>  <Substance>
531118 (antisense eG*e[5mC]*e[5mC]*eT*eA*dA*dA*dT*dG*dT*dA*dA*dG*dA*dG*e[5mC]*eT*eA*eA*eA) [compound 531118]

>  <% inhibition / %>
26

$$$$
>  <Substance>
531138 (antisense eT*eT*eT*eA*eA*dA*dT*dG*dT*dG*dT*d[5mC]*dA*d[5mC]*dT*eT*eA*eA*eT*e[5mC]) [compound 531138]

>  <% inhibition / %>
0

$$$$
>  <Substance>
531092 (e[5mC]*e[5mC]*eT*eT*e[5mC]*dA*d[5mC]*dT*dG*dA*d[5mC]*dT*d[5mC]*dT*d[5mC]*eT*eT*eT*eT*e[5mC]; antisense) [compound 531092]

>  <% inhibition / %>
24

$$$$
>  <Substance>
531116 (antisense eT*eT*eG*eT*eT*dA*dA*dG*dG*dT*dT*dG*dT*dA*dG*eA*eG*eA*eG*eA) [compound 531116]

>  <% inhibition / %>
23

$$$$
>  <Substance>
531085 (eA*eG*eG*e[5mC]*eA*d[5mC]*dA*dG*dA*dG*d[5mC]*d[5mC]*dA*dG*d[5mC]*eA*e[5mC]*e[5mC]*e[5mC]*eA; antisense) [compound 531085]

>  <% inhibition / %>
9

$$$$
>  <Substance>
531127 (antisense e[5mC]*eA*eG*eA*eG*d[5mC]*d[5mC]*dT*dT*dG*dA*dT*d[5mC]*dA*dG*eA*eA*eT*eA*eA) [compound 531127]

>  <% inhibition / %>
12

$$$$
